Test system: AncSZ
MEASUREMENT DESCRIPTION: phosphorylation enrichment, bacterial display (enrichment ratio); higher = better substrate or ligand; peptides without Tyr show the background;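 note: 11-residue human phosphosite peptides and single-mutation variants displayed on the E. coli surface, counted by deep sequencing, each peptide's frequency after selection divided by its frequency in the unselected input library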;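 note: frequency after pTyr selection over input frequency; kinase dosed for 20-30% of maximal phosphorylation in three min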
Readings of phosphorylation enrichment for the listed sequences

[
  {
    "SEQ STRING": "EDSEYYKAFEE [CASQ2_Y179]",
    "phosphorylation enrichment": 1.37
  },
  {
    "SEQ STRING": "QYKDKYLAKHN [CASK_Y712]",
    "phosphorylation enrichment": 0.401
  },
  {
    "SEQ STRING": "HLDRSYSYSYS [PEAR1_Y890_R885H]",
    "phosphorylation enrichment": 0.718
  },
  {
    "SEQ STRING": "KGSEGYLAAIF [NF1_Y2503_T2507I_YF]",
    "phosphorylation enrichment": 0.683
  },
  {
    "SEQ STRING": "PVGVLYKVKVY [PTS_Y128]",
    "phosphorylation enrichment": 1.28
  },
  {
    "SEQ STRING": "TINPIYEHVGY [CHN1_Y143]",
    "phosphorylation enrichment": 1.15
  },
  {
    "SEQ STRING": "PKEQKYSFLQN [GH1_Y68]",
    "phosphorylation enrichment": 0.972
  },
  {
    "SEQ STRING": "HKLSFNEFDFE [BTK_Y40_Y40N_YF]",
    "phosphorylation enrichment": 1.61
  },
  {
    "SEQ STRING": "SSPQPYLVPFL [TAF4_Y652]",
    "phosphorylation enrichment": 0.857
  },
  {
    "SEQ STRING": "ACCLLYCGDVV [TUBA4A_Y319_R320C]",
    "phosphorylation enrichment": 1.54
  },
  {
    "SEQ STRING": "PSALGYSPSLH [LLGL2_Y40_R45H]",
    "phosphorylation enrichment": 0.639
  },
  {
    "SEQ STRING": "FFCRWYRNQKS [EREG_Y144_R147Q_YF]",
    "phosphorylation enrichment": 0.775
  },
  {
    "SEQ STRING": "KDAGDYKFKAK [LRIT3_Y326_C328Y_YF]",
    "phosphorylation enrichment": 0.406
  },
  {
    "SEQ STRING": "LAAAKYKLNVD [SMARCA2_Y1190]",
    "phosphorylation enrichment": 0.444
  },
  {
    "SEQ STRING": "AKAEIYEMRPL [COX10_Y97]",
    "phosphorylation enrichment": 1.08
  },
  {
    "SEQ STRING": "GGRKGYGDFSR [RECQL5_Y478]",
    "phosphorylation enrichment": 0.416
  },
  {
    "SEQ STRING": "PLYSKYWPNHI [GREB1L_Y1560_R1558S]",
    "phosphorylation enrichment": 2.47
  },
  {
    "SEQ STRING": "MSRNLYSGDCF [DDR2_Y736_Y740C_YF]",
    "phosphorylation enrichment": 1.01
  },
  {
    "SEQ STRING": "ALTDNYMYVVI [HAGH_Y61_L64V]",
    "phosphorylation enrichment": 1.92
  },
  {
    "SEQ STRING": "FKGKKYKPLDL [RPL35_Y78_YF]",
    "phosphorylation enrichment": 0.577
  },
  {
    "SEQ STRING": "SYCYRYRCAAW [SUMF1_Y344_R349W]",
    "phosphorylation enrichment": 0.707
  },
  {
    "SEQ STRING": "VPLLEYFWDIF [CDAN1_Y712_R714W_YF]",
    "phosphorylation enrichment": 1.02
  },
  {
    "SEQ STRING": "TDKLFYIFTSG [SLC27A4_Y243_YF]",
    "phosphorylation enrichment": 1.6
  },
  {
    "SEQ STRING": "IIGNGYFFHVF [MYBPC3_Y1135_R1138H_YF]",
    "phosphorylation enrichment": 1.11
  },
  {
    "SEQ STRING": "LEIETCRRLLD [KRT12_Y429_Y429C]",
    "phosphorylation enrichment": 1.2
  },
  {
    "SEQ STRING": "TTPAVYARVTK [CTRB2_Y246_A250T]",
    "phosphorylation enrichment": 0.443
  },
  {
    "SEQ STRING": "CTTNHYNYMCN [TP53_Y234_I232N]",
    "phosphorylation enrichment": 0.725
  },
  {
    "SEQ STRING": "ENRKYYKDLKE [PURA_Y156_M157K]",
    "phosphorylation enrichment": 0.55
  },
  {
    "SEQ STRING": "QRAADYFSQQM [GBP6_Y333_YF]",
    "phosphorylation enrichment": 1
  }
]

====

ASSAY TARGET: Fyn (UniProt P06241)
Sequence (P06241 whole entry, looked up): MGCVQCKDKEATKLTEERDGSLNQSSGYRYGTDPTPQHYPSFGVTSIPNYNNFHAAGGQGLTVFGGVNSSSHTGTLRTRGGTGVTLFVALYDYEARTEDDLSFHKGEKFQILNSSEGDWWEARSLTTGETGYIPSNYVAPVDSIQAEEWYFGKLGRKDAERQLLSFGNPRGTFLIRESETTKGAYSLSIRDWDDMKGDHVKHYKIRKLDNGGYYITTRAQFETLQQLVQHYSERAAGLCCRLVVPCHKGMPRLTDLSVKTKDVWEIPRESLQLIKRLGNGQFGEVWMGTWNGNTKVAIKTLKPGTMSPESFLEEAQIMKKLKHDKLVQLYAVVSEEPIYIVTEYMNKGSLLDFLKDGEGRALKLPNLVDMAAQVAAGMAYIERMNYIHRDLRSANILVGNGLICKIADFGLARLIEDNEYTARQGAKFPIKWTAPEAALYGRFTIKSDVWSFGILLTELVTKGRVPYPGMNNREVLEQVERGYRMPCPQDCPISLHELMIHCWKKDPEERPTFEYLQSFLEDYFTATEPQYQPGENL
MEASUREMENT DESCRIPTION: phosphorylation enrichment, bacterial display (enrichment ratio); higher = better substrate or ligand; peptides without Tyr show the background

[
  {
    "SEQ STRING": "THQNSYQPGRK [CEFIP_Y210]",
    "phosphorylation enrichment": 0.36
  },
  {
    "SEQ STRING": "SMEGLYSSTQD [CLIC5_Y111]",
    "phosphorylation enrichment": 3.51
  },
  {
    "SEQ STRING": "GTVRDYPDFSP [ANXA3_Y15]",
    "phosphorylation enrichment": 0.444
  },
  {
    "SEQ STRING": "GFEEAYSVSKK [PAFAH1B1_Y28_F31S_YF]",
    "phosphorylation enrichment": 0.403
  },
  {
    "SEQ STRING": "GVRFTYTIDGS [DCX_Y105_I104T_YF]",
    "phosphorylation enrichment": 0.426
  },
  {
    "SEQ STRING": "IVLRSYPASDH [NID2_Y449_G453D]",
    "phosphorylation enrichment": 0.478
  },
  {
    "SEQ STRING": "SSSAIYDNPDL [DCP1B_Y191_N195D]",
    "phosphorylation enrichment": 3.81
  },
  {
    "SEQ STRING": "GEYYRYLAEVA [YWHAG_Y133_D129E]",
    "phosphorylation enrichment": 1.52
  },
  {
    "SEQ STRING": "ALTDNYMYVVI [HAGH_Y61_L64V]",
    "phosphorylation enrichment": 1.04
  },
  {
    "SEQ STRING": "LLSISYVGCSL [ADGRD1_Y571_S567L]",
    "phosphorylation enrichment": 0.98
  },
  {
    "SEQ STRING": "EQKKFYNAVKK [SCN5A_Y1495_M1498V_YF]",
    "phosphorylation enrichment": 0.392
  },
  {
    "SEQ STRING": "INSLKYAYNIS [EIF2B5_Y583]",
    "phosphorylation enrichment": 0.414
  },
  {
    "SEQ STRING": "GDPTEYFITAI [IGSF22_Y501_S503I_YF]",
    "phosphorylation enrichment": 0.445
  },
  {
    "SEQ STRING": "SGIYQYNIAKF [FOXL2_Y83_I84N]",
    "phosphorylation enrichment": 3.42
  }
]
